// provenance: patent US20230265151A1

- EXPERIMENTAL SYSTEM: hGLP-1R (Homo sapiens, UniProt P43220)
- EXPERIMENTAL DETAILS: cell-based or functional assay
PROPERTY LABEL: cAMP Emax (%)
Write the answer as a number in %, unit excluded.

BINDER: YXEGTXTSDXXIXLDXQAQXKFIXXLIEGGPSSGAPPPSK (Y-Aib-EGT-αMeF(2F)-TSD-4Pal-Aib-I-αMeL-LD-Orn-QAQ-Aib-K((2-[2-(2-Amino-ethoxy)-ethoxy]-acetyl)2-(γ-Glu)-CO-(CH2)12-CO2H)FI-(D-Glu)-αMeY-LIEGGPSSGAPPPSK((2-[2-(2-Amino-ethoxy)-ethoxy]-acetyl)2-(γ-Glu)-CO-(CH2)12-CO2H)-NH2) [Example 489]
PROPERTY LABEL: cAMP Emax
RESULT: 112
--
BINDER: YXEGTXTSDYXIXLDXKAQXXFIXXLIKGGPSSGAPPPS (Y-Aib-EGT-αMeF(2F)-TSDY-Aib-I-αMeL-LD-Orn-K((2-[2-(2-Amino-ethoxy)-ethoxy]-acetyl)2-(γ-Glu)-(10-(4-carboxyphenoxy)decanoyl))AQ-Aib-Om-FI-(D-Glu)-αMeY-LIK((2-[2-(2-Amino-ethoxy)-ethoxy]-acetyl)2-(γ-Glu)-(10-(4-carboxyphenoxy)decanoyl))GGPSSGAPPPS-NH2) [Example 352]
PROPERTY LABEL: cAMP Emax
RESULT: 99.5
--
BINDER: YXEGTXTSDXXIXLDXKAQXTFIXXLIKGGPSSGAPPPS (Y-Aib-EGT-αMeF(2F)-TSD-4Pal-Aib-I-αMeL-LD-Orn-K((2-[2-(2-Amino-ethoxy)-ethoxy]-acetyl)2-(γ-Glu)-CO-(CH2)10-CH3)AQ-Aib-TFI-(D-Glu)-αMeY-LIK((2-[2-(2-Amino-ethoxy)-ethoxy]-acetyl)2-(γ-Glu)-CO-(CH2)10-CH3)GGPSSGAPPPS-NH2) [Example 419]
PROPERTY LABEL: cAMP Emax
RESULT: 113
--
BINDER: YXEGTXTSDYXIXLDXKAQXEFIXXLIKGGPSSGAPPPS (Y-Aib-EGT-αMeF(2F)-TSDY-Aib-I-αMeL-LD-Orn-K((2-[2-(2-Amino-ethoxy)-ethoxy]-acetyl)2-CO-(CH2)12-CO2H)AQ-Aib-EFI-(D-Glu)-αMeY-LIK((2-[2-(2-Amino-ethoxy)-ethoxy]-acetyl)2-CO-(CH2)12-CO2H)GGPSSGAPPPS-NH2) [Example 388]
PROPERTY LABEL: cAMP Emax
RESULT: 95.4
--
BINDER: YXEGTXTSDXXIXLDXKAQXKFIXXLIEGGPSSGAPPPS (Y-Aib-EGT-αMeF(2F)-TSD-4Pal-Aib-I-αMeL-LD-Orn-K((2-[2-(2-Amino-ethoxy)-ethoxy]-acetyl)2-CO-(CH2)12-CO2H)AQ-Aib-K((2-[2-(2-Amino-ethoxy)-ethoxy]-acetyl)2-CO-(CH2)12-CO2H)FI-(D-Glu)-αMeY-LIEGGPSSGAPPPS-NH2) [Example 384]
PROPERTY LABEL: cAMP Emax
RESULT: 98.2

Next:
Fill in: cAMP Emax of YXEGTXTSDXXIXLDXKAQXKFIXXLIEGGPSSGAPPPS (Y-Aib-EGT-αMeF(2F)-TSD-4Pal-Aib-I-αMeL-LD-Orn-K((2-[2-(2-Amino-ethoxy)-ethoxy]-acetyl)-(γ-Glu)-CO-(CH2)10-CH3)AQ-Aib-K((2-[2-(2-Amino-ethoxy)-ethoxy]-acetyl)-(γ-Glu)-CO-(CH2)10-CH3)FI-(D-Glu)-αMeY-LIEGGPSSGAPPPS-NH2) [Example 426] is ___ 97.2
